Would you mind telling me the reported pEC50 of each entry?
Target: CYP3A4 (Homo sapiens (Human))
Sequence (P08684 whole entry): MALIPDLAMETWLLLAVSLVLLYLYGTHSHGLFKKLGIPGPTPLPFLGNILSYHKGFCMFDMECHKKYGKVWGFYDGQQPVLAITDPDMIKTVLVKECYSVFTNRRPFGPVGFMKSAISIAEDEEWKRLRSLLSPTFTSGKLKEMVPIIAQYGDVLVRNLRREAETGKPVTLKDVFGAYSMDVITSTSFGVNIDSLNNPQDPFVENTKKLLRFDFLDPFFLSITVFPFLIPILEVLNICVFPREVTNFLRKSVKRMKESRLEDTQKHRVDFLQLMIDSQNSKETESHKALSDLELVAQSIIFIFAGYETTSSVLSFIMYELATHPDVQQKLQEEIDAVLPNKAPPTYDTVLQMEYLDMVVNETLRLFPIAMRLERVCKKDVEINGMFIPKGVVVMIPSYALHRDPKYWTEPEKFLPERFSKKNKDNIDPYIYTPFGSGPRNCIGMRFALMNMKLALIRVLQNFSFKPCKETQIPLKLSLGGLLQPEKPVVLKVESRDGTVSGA
Assay: CYP3A4 inhibition in human liver microsomes, direct and metabolism-dependent
Assay type: in vitro ADME
Settings: marker substrate testosteron, direct inhibition, human liver microsomes; read-out: CYP3A4 Inhibition Testosteron EC50
Give bare numbers, as −log10 of the molar value.

Give me pEC50 for each of these molecules, listed below.
1. COc1ccc(Cn2c([C@@H](Cc3ccccc3)NC(C)=O)nnc2[C@@H](Cc2c[nH]c3ccccc23)NC(=O)CO)cc1.O=C(O)C(F)(F)F
2. COc1ccc(Cn2c([C@@H](Cc3ccccc3)NC(C)=O)nnc2[C@@H](Cc2c[nH]c3ccccc23)NC(=O)[C@@H]2CNCCO2)cc1.O=C(O)C(F)(F)F
3. COc1ccc(Cn2c(CCc3ccccc3)nnc2[C@@H](Cc2c[nH]c3ccccc23)NC(=O)OCC(C)C)cc1.O=C(O)C(F)(F)F
4. COc1ccc(Cn2c([C@@H](Cc3c[nH]c4ccccc34)NC(C)=O)nnc2[C@@H](Cc2c[nH]c3ccccc23)NC(=O)C(C)(C)N)cc1.O=C(O)C(F)(F)F

[4.46, 4.57, 4.98, 4.51]

src = patent US8546435B2
